Tested on: Mus musculus
Assay: Toxicity in mouse assessed as ataxia at 100 mg/kg, sc measured up to 20 mins
Assay type: organism-based
Set-up: dose 100 mg/kg, route subcutaneous
Settings: in vivo

[
  {
    "compound": "CCN(CC)CC(=O)Nc1c(C)cccc1C",
    "Activity": "Toxic"
  },
  {
    "compound": "Cc1cccc(C)c1NC(=O)CCN.Cl",
    "Activity": "Non-toxic"
  },
  {
    "compound": "CCc1cccc(C)c1NC(=O)CC(C)N.Cl (stereo unspecified)",
    "Activity": "Non-toxic"
  },
  {
    "compound": "CCN(C(=O)CC(C)N)c1c(C)cccc1C.O.O=C(O)C(O)C(O)C(=O)O (stereo unspecified)",
    "Activity": "Toxic"
  },
  {
    "compound": "Cc1cccc(C)c1NC(=O)CC(C)(C)N.Cl",
    "Activity": "Non-toxic"
  },
  {
    "compound": "CCC(N)CC(=O)Nc1c(C)cccc1C.Cl (stereo unspecified)",
    "Activity": "Non-toxic"
  },
  {
    "compound": "Cc1cccc(C)c1NC(=O)CC(C)N.Cl (stereo unspecified)",
    "Activity": "Non-toxic"
  },
  {
    "compound": "CCN(CC)CCC(=O)Nc1c(C)cccc1C",
    "Activity": "Toxic"
  },
  {
    "compound": "Cc1cccc(C)c1N(C)C(=O)CC(C)N.O.O=C(O)C(O)C(O)C(=O)O (stereo unspecified)",
    "Activity": "Toxic"
  },
  {
    "compound": "Cc1cccc(C)c1N(C)C(=O)CCN.Cl.O",
    "Activity": "Non-toxic"
  },
  {
    "compound": "CCc1cccc(C)c1NC(=O)CCN.Cl",
    "Activity": "Non-toxic"
  }
]

----------
# ED50 values compiled below
Tested on: Mus musculus
Test: Antiarrhythmic activity in sc dosed mouse assessed as protection against chloroform-induced fibrillation
Type: functional
Conditions: Heart

[
  {
    "compound": "CCc1cccc(C)c1NC(=O)CC(C)N.Cl (centres undefined)",
    "target under test": "Mus musculus",
    "ED50 / µmol/kg": 540
  },
  {
    "compound": "Cc1cccc(C)c1NC(=O)CCN.Cl",
    "target under test": "Mus musculus",
    "ED50 / µmol/kg": 560
  },
  {
    "compound": "Cc1cccc(C)c1NC(=O)CC(C)(C)N.Cl",
    "target under test": "Mus musculus",
    "ED50 / µmol/kg": 250
  },
  {
    "compound": "Cc1cccc(C)c1NC(=O)C(C)N (centres undefined) [TOCAINIDE]",
    "target under test": "Mus musculus",
    "ED50 / µmol/kg": 1300
  },
  {
    "compound": "CCN(CC)CC(=O)Nc1c(C)cccc1C",
    "target under test": "Mus musculus",
    "ED50 / µmol/kg": 260
  },
  {
    "compound": "Cc1cccc(C)c1NC(=O)CC(C)N.Cl (centres undefined)",
    "target under test": "Mus musculus",
    "ED50 / µmol/kg": 460
  },
  {
    "compound": "CCC(N)CC(=O)Nc1c(C)cccc1C.Cl (centres undefined)",
    "target under test": "Mus musculus",
    "ED50 / µmol/kg": 380
  },
  {
    "compound": "CCN(CC)CCC(=O)Nc1c(C)cccc1C",
    "target under test": "Mus musculus",
    "ED50 / µmol/kg": 280
  },
  {
    "compound": "CCc1cccc(C)c1NC(=O)CCN.Cl",
    "target under test": "Mus musculus",
    "ED50 / µmol/kg": 1990
  }
]

----------
Test system: Mus musculus
Assay: Toxicity in mouse assessed as convulsion at 100 mg/kg, sc measured up to 20 mins
Type: organism-based
Design: dose 100 mg/kg, route subcutaneous
Conditions: in vivo

[
  {
    "molecule": "Cc1cccc(C)c1N(C)C(=O)CCN.Cl.O",
    "Activity": "Non-toxic"
  },
  {
    "molecule": "Cc1cccc(C)c1NC(=O)CCN.Cl",
    "Activity": "Non-toxic"
  },
  {
    "molecule": "CCN(CC)CC(=O)Nc1c(C)cccc1C [LIDOCAINE]",
    "Activity": "Toxic"
  },
  {
    "molecule": "CCC(N)CC(=O)Nc1c(C)cccc1C.Cl (stereo not given)",
    "Activity": "Non-toxic"
  },
  {
    "molecule": "CCc1cccc(C)c1NC(=O)CCN.Cl",
    "Activity": "Non-toxic"
  },
  {
    "molecule": "CCc1cccc(C)c1NC(=O)CC(C)N.Cl (stereo not given)",
    "Activity": "Non-toxic"
  },
  {
    "molecule": "Cc1cccc(C)c1NC(=O)CC(C)(C)N.Cl",
    "Activity": "Non-toxic"
  },
  {
    "molecule": "CCN(C(=O)CC(C)N)c1c(C)cccc1C.O.O=C(O)C(O)C(O)C(=O)O (stereo not given)",
    "Activity": "Toxic"
  },
  {
    "molecule": "Cc1cccc(C)c1NC(=O)CC(C)N.Cl (stereo not given)",
    "Activity": "Non-toxic"
  },
  {
    "molecule": "Cc1cccc(C)c1NC(=O)C(C)N (stereo not given) [TOCAINIDE]",
    "Activity": "Non-toxic"
  }
]

----------
System: Canis familiaris
Experiment: Antiarrhythmic activity in left anterior descending coronary artery ligated myocardial infarction model of dog assessed as clearing value of ventricular ectopic beats at 0.5 mg/kg/min, iv
Format: functional, Canis lupus familiaris, Heart
# reported Activity; entries follow
metric: Activity (%)

[
  {
    "compound": "Cc1cccc(C)c1NC(=O)CC(C)N.Cl (stereo unspecified)",
    "metric": "Activity",
    "unit spec": "%",
    "result": 0
  },
  {
    "compound": "CCN(CC)CCC(=O)Nc1c(C)cccc1C",
    "metric": "Activity",
    "unit spec": "%",
    "result": 15
  },
  {
    "compound": "Cc1cccc(C)c1NC(=O)C(C)N (stereo unspecified) [TOCAINIDE]",
    "metric": "Activity",
    "unit spec": "%",
    "result": 2
  },
  {
    "compound": "Cc1cccc(C)c1NC(=O)CC(C)(C)N.Cl",
    "metric": "Activity",
    "unit spec": "%",
    "result": 39
  },
  {
    "compound": "CCN(CC)CC(=O)Nc1c(C)cccc1C",
    "metric": "Activity",
    "unit spec": "%",
    "result": 4
  },
  {
    "compound": "Cc1cccc(C)c1NC(=O)CCN.Cl",
    "metric": "Activity",
    "unit spec": "%",
    "result": 5
  }
]
